Measured pIC50, listed per entry for reference.
target: UniProt:P49840; experiment: GSK3α TR-FRET kinase assay; assay type: biochemical; settings: 1 nM GSK3α, 4 μM ATP, 30 minute preincubation, Table 16; read-out: GSK3-A TR-FRET BIOCHEMICAL (TR-FRET); IC50
Sequence (P49840 whole entry): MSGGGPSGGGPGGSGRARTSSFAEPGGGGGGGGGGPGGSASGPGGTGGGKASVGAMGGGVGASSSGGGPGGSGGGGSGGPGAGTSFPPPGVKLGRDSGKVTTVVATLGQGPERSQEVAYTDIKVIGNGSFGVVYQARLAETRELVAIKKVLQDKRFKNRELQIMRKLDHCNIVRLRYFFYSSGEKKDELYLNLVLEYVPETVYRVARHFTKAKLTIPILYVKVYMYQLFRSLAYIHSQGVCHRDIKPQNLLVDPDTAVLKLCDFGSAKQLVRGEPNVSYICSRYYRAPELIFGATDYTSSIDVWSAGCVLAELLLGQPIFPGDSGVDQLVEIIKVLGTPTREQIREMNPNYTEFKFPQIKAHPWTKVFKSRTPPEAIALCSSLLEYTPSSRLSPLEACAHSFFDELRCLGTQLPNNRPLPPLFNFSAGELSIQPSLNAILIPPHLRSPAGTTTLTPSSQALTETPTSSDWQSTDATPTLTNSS
pIC50: −log10 of the molar value.

For orientation, consider the following solved cases.
CC[C@]1(c2cccc(-c3cnn(CC(=O)N(C)C)c3)c2)C2=C(CC(C)(C)NC2=O)Nc2n[nH]cc21 [Compound 952208] :: 6.00 to 7.00
CC[C@]1(c2cccc(-c3cc(C)nc(C)c3)c2)C2=C(CC(C)(C)CC2=O)Nc2n[nH]cc21 [Compound 913223] :: < 5.30
CC[C@@]1(c2cccc(-c3c(C)ccc4c(C)cccc34)c2)C2=C(CC(C)(C)NC2=O)Nc2n[nH]c(F)c21 [Compound 949392] :: 5.30 to 6.00

API: the following record is the query input.
Query string: Fill blank: measured pIC50 of the molecule CCC1(c2cccc(-c3cnn4c3CCCC4)c2)C2=C(CC(C)(C)CC2=O)Nc2n[nH]c(C)c21 (stereo not shown) [Compound 913033] is ____.
Result string: 6.00 to 7.00

====

IC50 by entry:
target: GSK3b (GST-full length GSK3b) (Homo sapiens (Human), UniProt P49841); assay: GSK3b TR-FRET kinase assay; assay type: biochemical; conditions: 1 nM GSK3b, 2 μM ATP, 30 minute preincubation; geometric mean; read-out: GSK3-B TR-FRET BIOCHEMICAL (TR-FRET); GMean; IC50
Sequence (P49841 whole entry): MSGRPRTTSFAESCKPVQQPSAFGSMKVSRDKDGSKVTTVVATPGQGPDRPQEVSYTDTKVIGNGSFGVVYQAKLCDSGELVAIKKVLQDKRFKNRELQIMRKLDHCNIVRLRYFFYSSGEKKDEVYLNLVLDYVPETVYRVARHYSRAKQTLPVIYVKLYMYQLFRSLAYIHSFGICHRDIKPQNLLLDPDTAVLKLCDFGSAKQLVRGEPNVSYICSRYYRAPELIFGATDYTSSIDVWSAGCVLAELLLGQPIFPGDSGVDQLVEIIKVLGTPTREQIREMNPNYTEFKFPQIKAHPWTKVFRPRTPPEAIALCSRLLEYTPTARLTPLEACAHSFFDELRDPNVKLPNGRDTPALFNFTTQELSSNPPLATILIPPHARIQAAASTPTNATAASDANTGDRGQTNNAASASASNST

Illustrative cases are given below, each with its answer.
CC[C@]1(c2ccccc2)C2=C(C[C@H](c3ccccc3)CC2=O)Nc2n[nH]cc21 [Compound 791262] :: > 5000 nM
CC[C@]1(c2cccc(-c3ccnc(C)c3C)c2)C2=C(CC(C)(C)NC2=O)Nc2n[nH]c(C(F)(F)F)c21 [Compound 948181] :: 100 to 1000 nM
CC[C@]1(c2cccc(-c3c(C)nn(C)c3C)c2)C2=C(CC(C)(C)NC2=O)Nc2n[nH]c(C)c21 [Compound 947573] :: 1000 to 5000 nM

Query string: Which measured IC50 value corresponds to C[C@H]1CC(=O)C2=C(C1)Nc1n[nH]cc1[C@@]2(C)c1ccccc1 [Compound 789334] ?
Result string: 1000 to 5000 nM

Query string: Given the entry CCC1(c2cccc(-c3ccnc(N4CCCCC4)c3)c2)C2=C(CC(C)(C)NC2=O)Nc2n[nH]cc21 (stereo not drawn) [Compound 948663] , report its measured IC50.
Result string: > 5000 nM

Query string: Fill in: IC50 of CCC1(c2cccc(C(C)C)c2)C2=C(CC(C)(C)CC2=O)Nc2n[nH]cc21 (stereo not drawn) [Compound 801322] is ___
Result string: 100 to 1000 nM

Query string: I am curious: what IC50 value has been reported for CC[C@]1(c2cccc(S(=O)(=O)C3CC3)c2)C2=C(CC(C)(C)NC2=O)Nc2[nH]nc(C(F)(F)F)c21 [Compound 948771] ?
Result string: ≤ 100 nM

Query string: Give the measured IC50 of CCC1(c2cccc(-c3ccnn3C)c2)C2=C(CC3(CCCOC3)NC2=O)Nc2n[nH]cc21 (stereo not drawn) [Compound 948366] .
Result string: > 5000 nM

Query string: Quick one: IC50 for CC[C@@]1(c2ccccc2)C2=C(C[C@@H](C(F)(F)F)CC2=O)Nc2n[nH]cc21 [Compound 806607] ?
Result string: > 5000 nM

Query string: Tell me the measured IC50 of CC[C@]1(c2ccccc2)C2=C(Nc3n[nH]cc31)[C@@H](C)C[C@H](C)C2=O [Compound 865198] , please.
Result string: 1000 to 5000 nM

Query string: Value lookup for IC50; key = CC[C@]1(c2cccc(-c3ccncc3C)c2)C2=C(CC(C)(C)NC2=O)Nc2n[nH]cc21 [Compound 947574]
Result string: ≤ 100 nM

Query string: What value of IC50 has been recorded for this entry: Cc1[nH]nc2c1C(C)(c1cccc(C(F)(F)F)c1)C1=C(CC(C)(C)CC1=O)N2 (stereo not drawn) [Compound 811556]
Result string: ≤ 100 nM

Query string: What does the data say about its IC50? Entry: CCC1(c2cccc(Oc3ncccn3)c2)C2=C(CC(C)(C)NC2=O)Nc2n[nH]cc21 (stereo not drawn) [Compound 948764]
Result string: 100 to 1000 nM

Query string: For the compound CCC1(c2cccc(S(C)(=O)=O)c2)C2=C(CC(C)(C)CC2=O)Nc2n[nH]cc21 (stereo not drawn) [Compound 819561] , what IC50 is on record?
Result string: ≤ 100 nM

Query string: Name the reported IC50 value associated with the compound CCC1(c2cccc(Br)c2)C2=C(CC(C)(C)CC2=O)Nc2n[nH]cc21 (stereo not drawn) [Compound 790734]
Result string: > 5000 nM
